The measured values listed here are drawn from PubChem BioAssay (NCI).

- Tested on: NCI-H460 lung
- assay-details: NCI-60 one-dose screen, 48 h
- settings: 10 µM unless noted
Compounds without any hit were thinned out: in the full panel of roughly 83,000, 20% have a hit. The source made the active and inactive calls. How the source made its calls: active means growth percent below 10; inactive means the rest.
Possible outcomes: active, inactive

compound	qualitative-label
O=c1[nH]c2ccccc2cc1COc1ccc(Nc2nccc(-c3ccc(Cl)cc3)n2)cc1	inactive
c1n[nH]cc1-c1nc2ccc3cn[nH]c3c2c2c1CCCC2	inactive
COc1ccc2[nH]c(O)c(N=Nc3nc(-c4ccc(Br)cc4)cs3)c2c1	active
COc1cc(CNC(=O)[C@]23CCC(C)(C)CC2C2=CCC4[C@@]5(C)CCC(OC(C)=O)C(C)(C)C5CC[C@@]4(C)[C@]2(C)CC3)ccc1OCc1cn(-c2ccc(Cl)cc2Cl)nn1 (some centres undefined)	inactive
Cc1ccc(C2CC(c3ccc(NC(=S)Nc4ccccc4)cc3)=NN2c2ccc(S(N)(=O)=O)cc2)cc1 (centres undefined)	active
O=C(CSc1nc2c(c(=O)[nH]1)CCCC2)Nc1ccccc1C(=O)O	inactive
O=C(OCCOCCO)N(c1cccc(Br)c1)c1nc(SCCN2CCOCC2)nc2c1cnn2CC(Cl)c1ccc(Br)cc1 (centres undefined)	active
Cc1[nH]nc2ccc3nc(-c4cn[nH]c4C(F)(F)F)c4c(c3c12)CCCC4	active
COC(=O)c1cc(C(=O)C(Br)Br)n2c1ccc1c3ccccc3ccc12	inactive
Fc1ccc(N2CC(Cn3c(C(F)(F)F)cc4c(Cl)ncnc43)C2)c(F)c1	active
O=C(N/N=C/c1ccc(Br)o1)c1[nH]c2ccc(Br)cc2c1-c1ccccc1	active
CN(C)C(=O)c1cc(-c2ccc3ncnc(N4CCc5cc(F)c(Cl)cc54)c3c2)cnc1N	active
C=CCSc1nnc(-c2ccc(-c3nc4ccc(Cl)cc4[nH]3)cc2)o1	inactive
O=C(Nc1nc2ccc([N+](=O)[O-])cc2s1)Nc1ccc(Cl)cc1Cl	inactive
CC1=C(C(=O)Nc2ccccc2)C(c2cccc3ccccc23)n2c(nc3ccccc32)N1 (centres undefined)	inactive
Cc1ccc2c(c1)/C(=C/C(=O)c1cc3ccccc3oc1=O)C(=O)N2	inactive
O=C1Nc2cc(-c3ccc(NS(=O)(=O)c4ccc(C(F)(F)F)cc4)cc3)ccc2/C1=C/c1ccc[nH]1	active
O=C(N/N=C/c1ccoc1)c1[nH]c2ccc(Br)cc2c1-c1ccccc1	active
O=C(N/N=C/c1c[nH]c2ccccc12)Nc1ccc(F)c(Cl)c1	inactive

====

- Tested on: MDA-MB-468 breast
- assay-details: NCI-60 one-dose screen, 48 h (100 = growth as untreated, 0 = no growth, -100 = all killed)
- settings: 10 µM unless noted
The panel holds about 83,000 compounds, 20% with a hit somewhere; the sample as a whole holds those more often.
I would appreciate it if you labelled entries true (1) when growth is -20% or higher, otherwise false (0).

> print(dat)
                                    molecule    subject.of.test  qualitative.label
 1  C[C@H](NC(=O)c1ccc2c(-c3ccc(C(F)(F)F)cc3)cccc2c1)c1ccccn1  MDA-MB-468 breast           true (1)
 2  Oc1cncc(-c2ccc3ncnc(N4CCc5cc(F)c(Cl)cc54)c3c2)c1  MDA-MB-468 breast           true (1)
 3  COc1ccc(Nc2ncnc3sc4c(c23)CCN(Cc2ccccc2)C4)cc1  MDA-MB-468 breast           true (1)
 4  Nc1nn2c(-c3cc4cc(Br)ccc4oc3=O)ccnc2c1N=Nc1ccccc1  MDA-MB-468 breast           true (1)
 5    Cc1cccc(-c2ccccc2Oc2ccc3nnc(Cl)n3n2)c1  MDA-MB-468 breast           true (1)
 6  O=C(Cc1c(-c2ccccc2[N+](=O)[O-])n(-c2ncnc3c2c(-c2ccccc2)c(-c2ccccc2)n3Cc2ccccc2)[nH]c1=O)c1ccc(Cl)c(Cl)c1  MDA-MB-468 breast          false (0)
 7     COc1ccccc1Nc1nnc(-c2c[nH]c3ccccc23)o1  MDA-MB-468 breast          false (0)
 8  O=C1Nc2ccc(F)cc2/C1=C/C(=O)c1cc2ccccc2oc1=O  MDA-MB-468 breast           true (1)
 9  O=C(CSc1nnc(-c2ccc(-c3nc4ccc(Cl)cc4[nH]3)cc2)o1)Nc1ccccc1  MDA-MB-468 breast           true (1)
10  COc1ccc(N=Nc2c(N)nn3c(-c4ccc(F)cc4)ccnc23)cc1  MDA-MB-468 breast           true (1)
11  O=C(N/N=C/c1ccc(Cl)o1)c1[nH]c2ccc(Br)cc2c1-c1ccccc1  MDA-MB-468 breast           true (1)
12  CN(C)c1nc(NCCNS(=O)(=O)c2ccc(C(=O)/C=C/c3ccc(C(F)(F)F)cc3)cc2)nc(N2CCOCC2)n1  MDA-MB-468 breast          false (0)
13  CC1=C(C(=O)OCc2ccccc2)C(c2ccc(N(C)C)cc2)n2c(nc3ccccc32)N1 (configuration not stated)  MDA-MB-468 breast           true (1)
14  Nc1ccc(-c2ccc3ncnc(N4CCc5cc(F)c(Cl)cc54)c3c2)cn1  MDA-MB-468 breast          false (0)
15  Cn1cc(-c2cc(N)n3nc(-c4c[nH]c5ccc(F)cc45)cc3n2)c2cccnc21  MDA-MB-468 breast          false (0)
16  Nc1nn2c(-c3cc4ccccc4oc3=O)ccnc2c1N=Nc1ccccc1  MDA-MB-468 breast           true (1)
17  N#Cc1cc(-c2ccc3ncnc(N4CCc5cc(F)c(Cl)cc54)c3c2)cnc1N  MDA-MB-468 breast           true (1)
18  C=CCn1c(O)c(N=Nc2nc(-c3cc4ccccc4oc3=O)cs2)c2ccccc21  MDA-MB-468 breast           true (1)
19  C[C@H]1[C@@H](CC(=O)N[C@@H](Cc2coc3ccccc23)B(O)O)O[C@@H]2OC3(C)CC[C@H]4[C@H](C)CC[C@@H]1[C@@]24O3  MDA-MB-468 breast          false (0)
20  CC(C)(C)C(=O)c1c2c(c3ccc4c5ccccc5ccc4n13)C(=O)c1ccccc1C2=O  MDA-MB-468 breast           true (1)
21            O=C(Nc1nc2ccccc2s1)Nc1ccccc1Cl  MDA-MB-468 breast           true (1)
22  N#CC1=C(c2ccco2)Nc2c(c(-c3ccccc3)nn2-c2ccccc2)C12C(=O)Nc1ccc(Cl)cc12 (configuration not stated)  MDA-MB-468 breast           true (1)
23  O=C(CSc1nc2sc3c(c2c(=O)n1-c1ccc(Cl)cc1)CCCC3)NNC(=O)c1ccc(F)cc1  MDA-MB-468 breast           true (1)
24  CCCCCCCCc1ccc(C(=O)Nc2ccc(C)c(OP(=O)(O)O)c2)cc1  MDA-MB-468 breast           true (1)
25  O=C(Nc1ccc(Cl)c(C(F)(F)F)c1)N1CCN(c2cc(-c3cn(-c4ccccc4)nc3-c3cccc(O)c3)ccn2)CC1  MDA-MB-468 breast          false (0)
26  C=CC(=O)N1CCN(c2ccc3nc4c(nc3c2C(F)(F)F)C(=O)c2ncccc2C4=O)CC1  MDA-MB-468 breast          false (0)
27  Nc1cc(-c2c[nH]c3ccc(Cl)cc23)nc2cc(-c3c[nH]c4ccccc34)nn12  MDA-MB-468 breast          false (0)
28  S=C(NCCc1ccccc1)Nc1ccc(OCc2nc3ccc(Cl)cc3[nH]2)cc1  MDA-MB-468 breast           true (1)
29  O=C1Nc2cc(-c3ccc(NS(=O)(=O)c4ccc(C(F)(F)F)cc4)cc3)ccc2/C1=C/c1ccc[nH]1  MDA-MB-468 breast          false (0)
30  COC(=O)c1c(C(=O)OC)c2c3ccccc3c3ccccc3n2c1C(=O)C(C)(C)C  MDA-MB-468 breast           true (1)
31  O=C(c1ccc(O)cc1)C1[C@H](c2ccc(Cl)cc2)[C@@H](c2ccccc2)NC12C(=O)Nc1ccc(Br)cc12 (some centres not stated)  MDA-MB-468 breast          false (0)
32  O=C(CSc1nc2sc3c(c2c(=O)n1-c1ccc(Cl)cc1)CCCC3)N/N=C/C=C/c1ccccc1  MDA-MB-468 breast          false (0)
33  O=S(=O)(c1nc(-c2ccc(Br)cc2)oc1-c1ccc(Cl)cc1)N1CCCC(O)C1 (configuration not stated)  MDA-MB-468 breast           true (1)
34  CC(Nc1ncnc2ccc(-c3ccc4oc(N)nc4c3)cc12)c1ccccc1 (configuration not stated)  MDA-MB-468 breast          false (0)
35  CNS(=O)(=O)N1CCc2c(Br)c3c(c(OC)c2C1CCc1ccccc1)OCO3 (configuration not stated)  MDA-MB-468 breast          false (0)
36  COc1ccc2[nH]c(=O)cc(-n3ncc(C(=O)/C=C/c4cc(OC)c(OC)c(OC)c4)c3C)c2c1  MDA-MB-468 breast          false (0)
37  Cc1ccc(/C=C/C(=O)c2ccc(S(=O)(=O)NCCNc3nc(N(C)C)nc(N4CCOCC4)n3)cc2)cc1  MDA-MB-468 breast           true (1)
